Reported Ki values follow for various compounds
# assayed target: TbAQP2/HAPT1 (Trypanosoma brucei brucei, UniProt Q6ZXT3)
# Sequence (Q6ZXT3 whole entry): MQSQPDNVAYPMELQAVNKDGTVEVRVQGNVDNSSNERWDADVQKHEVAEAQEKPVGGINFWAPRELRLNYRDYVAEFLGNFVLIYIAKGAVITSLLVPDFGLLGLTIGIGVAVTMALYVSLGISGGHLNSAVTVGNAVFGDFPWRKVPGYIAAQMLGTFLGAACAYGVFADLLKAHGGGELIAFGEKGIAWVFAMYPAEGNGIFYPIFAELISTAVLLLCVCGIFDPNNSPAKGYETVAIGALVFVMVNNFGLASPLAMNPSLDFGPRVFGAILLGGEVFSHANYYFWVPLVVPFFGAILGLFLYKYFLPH
# procedure details: cell-based
# Assay type: cell-based
# particulars: NI/NE with the concentration tested; read-out: HAPT Ki, AVG
observed property: Ki (µM)

1) N=C(N)c1ccc(-c2ccc(-c3ccc(C(=N)N)cn3)o2)cc1
43.4
2) N=C(N)NCCCCCCCCCCN=C(N)N.O=S(=O)(O)O [Synthalin sulphate]
270

---

# Test system: tbaqp1-2-3 null cells expressing TbAQP2 position 84, 118 and 218 Trp and Met mutants
# procedure details: Drug sensitivity assay (resazurin), pentamidine and SHAM
# Assay type: cell-based, Trypanosoma brucei brucei
# particulars: +L118W in KO AQP1-3; 3 repeats; read-out: EC50, MEAN
observed property: EC50 (µM)

1. O=C(NO)c1ccccc1O
10.8

---

# Test system: tbaqp1-2-3 null cells
# procedure details: Drug sensitivity assay (resazurin), pentamidine and SHAM
# Format: cell-based, Trypanosoma brucei brucei
# particulars: Trypanosoma brucei, KO AQP1-3; read-out: Alamar blue EC50, single repeats
pEC50: −log10 of the molar value.
observed property: pEC50

1. N=C(N)c1ccc(OCCCCCOc2ccc(C(=N)N)cc2)cc1
7.16

---

# assayed target: TbAQP2/HAPT1 (Trypanosoma brucei brucei)
# procedure details: cell-based
# Format: cell-based
Reported δ(ΔG^0) PMD values follow for various compounds
observed property: δ(ΔG^0) PMD (kcal/mol)

1) Cl.N=C(N)c1ccc(OCCCCOc2ccccc2)cc1.O
2.49
2) CNC(=N)c1ccc(OCCCCCOc2ccc(C(=N)NC)cc2)cc1
1.27
3) N=C(N)c1ccc(-c2ccc(-c3ccc(C(=N)N)nc3)o2)cn1
5.02
4) N=C(N)c1ccc(OCCCCCCOc2ccc(C(=N)N)cc2)cc1
0.311

---

# assayed target: TbAQP2/HAPT1 (Trypanosoma brucei brucei)
# procedure details: cell-based
# Format: cell-based
Reported δ(ΔG^0) PMD values follow for various compounds
observed property: δ(ΔG^0) PMD (kcal/mol)

1) c1cc(NC2=NCCN2)ccc1CCc1ccc(NC2=NCCN2)cc1 [FR39]
4.21
2) N=C(N)c1ccc(OCCCCOc2ccc(C(=N)N)cc2)cc1 [Butamidine]
2.8
3) N=C(N)c1ccc(OCCCCCCCOc2ccc(C(=N)N)cc2)cc1 [Heptamidine]
0.741
4) N=C(N)c1ccc(-c2csc(-c3ccc(C(=N)N)cc3)n2)cc1 [ER1004, 4,4'-(thiazole-2,4-diyl)dibenzimidamide]
4.49
5) N=C(N)c1ccc(OCCCCCOc2ccc(C(=N)N)cn2)nc1 [RT-52]
3.27
6) Cn1c(-c2ccc(-c3ccc(C(=N)N)cc3)o2)nc2ccccc21 [DB960]
3.66
7) N=C(N)c1ccc(OCCCCCOc2ccc(C(=N)N)cc2Cl)c(Cl)c1 [RT-43]
1.58

---

# assayed target: TbAQP2/HAPT1 (Trypanosoma brucei brucei, UniProt Q6ZXT3)
# procedure details: cell-based
# Format: cell-based
observed property: ΔG0 (kcal/mol)

1. N=C(N)c1ccc(-c2ccc(-c3ccc(C(=N)N)cn3)o2)nc1 [DB829]
-6
2. N=C(N)c1ccc(-c2ccc(-c3ccc(C(=N)N)cc3)o2)cc1 [DB75]
-6.02
3. N=C(N)c1ccc(SCCCCCSc2ccc(C(=N)N)cc2)cc1 [RT-48]
-7.77
4. N=C(N)c1ccc(-c2csc(-c3ccc(C(=N)N)cc3)c2)cc1 [DB1077]
-6.62
5. CC[n+]1c(-c2ccccc2)c2cc(N/N=N/c3cccc(C(=N)N)c3)ccc2c2ccc(N)cc21 [Isometamidium]
-7.43
6. N=C(N)c1ccc(OCCCCCCCCOc2ccc(C(=N)N)cc2)cc1 [Octamidine]
-7.72
7. N=C(N)c1cccc(OCCCCCOc2cccc(C(=N)N)c2)c1 [Meta-pentamidine RT40]
-5.71
8. CC[n+]1c(-c2ccccc2)c2cc(N)ccc2c2ccc(N)cc21 [Ethidium]
-5.47
9. c1cc(NC2=NCCN2)ccc1CCc1ccc(NC2=NCCN2)cc1 [FR39]
-5.98
10. CNC(=N)c1ccc(OCCCCCOc2ccc(C(=N)NC)cc2)cc1 [RT-30]
-8.89
11. Cl.Cl.N=C(N)c1ccc(OCCCOc2ccc(C(=N)N)cc2)cc1.O.O [Propamidine]
-7.07
12. N=C(N)c1ccc(OCCCCCCOc2ccc(C(=N)N)cc2)cc1 [Hexamidine]
-9.87
13. N=C(N)c1ccc(OCCCCCOc2ccc(C(=N)N)cc2Cl)c(Cl)c1 [RT-43]
-8.58
14. Cn1c(-c2ccc(-c3ccc(C(=N)N)cc3)o2)nc2ccccc21 [DB960]
-6.52
15. N=C(N)c1ccc(O)cc1 [4-hydroxybenzamidine]
-3.47
16. N=C(N)c1ccc(-c2csc(-c3ccc(C(=N)N)cc3)n2)cc1 [ER1004, 4,4'-(thiazole-2,4-diyl)dibenzimidamide]
-5.69
17. COc1ccc(-c2ccc(-c3ccc(C(=N)N)cc3)o2)cc1 [DB607]
-6.48
18. N=C(N)c1ccc(/C=C/c2ccc(C(=N)N)cc2)cc1 [Stilbamidine]
-5.81
19. N=C(N)c1ccc(OCCCCCOc2ccc(C(=N)N)cc2)cc1 [Pentamidine]
-10.2
20. COc1cc(/C=C/C(=O)CC(=O)/C=C/c2ccc(O)c(OC)c2)ccc1O [curcumin]
-4.64
21. O=C(CCc1ccc(O)cc1)c1c(O)cc(O)cc1O [Phloretin]
-7.84
22. N=C(N)c1ccc(-c2cc3ccc(C(=N)N)cc3[nH]2)cc1 [DAPI]
-6.24
23. N=C(N)c1ccc(OCCCCCCCOc2ccc(C(=N)N)cc2)cc1 [Heptamidine]
-9.42
24. N=C(N)c1ccc(OCCOCCOc2ccc(C(=N)N)cc2)cc1 [DB1699]
-6.52
25. N=C(N)c1ccc(OCCCCCOc2ccc(C(=N)N)cn2)nc1 [RT-52]
-6.88
26. N=C(N)CCc1ccc(-c2ccc(-c3ccc(CCC(=N)N)cc3)s2)cc1 [DB1063]
-8.72
27. Cc1ccc(OCCCCCOc2ccc(C(=N)N)cc2)cc1 [CHI/1/72/1]
-7.62
28. N=C(N)c1ccc(NCCCCCNc2ccc(C(=N)N)cc2)cc1 [RT-50]
-7.1
29. N=C(N)Nc1ccc(-c2ccc(-c3ccc(NC(=N)N)cc3)s2)cc1 [DB686]
-8.91
30. N=C(N)c1ccc(OCCCCOc2ccc(C(=N)N)cc2)cc1 [Butamidine]
-7.39
31. N=C(N)CCc1ccc(-c2ccc(-c3ccc(CCC(=N)N)cc3)o2)cc1 [DB1061]
-6.12

---

# assayed target: TbAQP2/HAPT1 (Trypanosoma brucei brucei, UniProt Q6ZXT3)
# procedure details: cell-based
# Type: cell-based
# particulars: Ki value, Mean
Mark yes (1) for Ki under 2000 nM, no (0) if at or over.

1. N=C(N)c1ccc(OCCCOc2ccc(C(=N)N)cc2)cc1 [Chainlength 3]
no (0)
2. N=C(N)c1ccc(OCCCCCCCCOc2ccc(C(=N)N)cc2)cc1 [Chainlength 8]
no (0)
3. N=C(N)c1ccc(OCCCCCCCOc2ccc(C(=N)N)cc2)cc1 [Chainlength 7]
yes (1)
4. N=C(N)c1ccc(OCCCCOc2ccc(C(=N)N)cc2)cc1 [Chainlength 4]
no (0)
5. N=C(N)c1ccc(OCCCCCCOc2ccc(C(=N)N)cc2)cc1 [Chainlength 6]
yes (1)

---

Reported EC50 values follow for various molecules
# System: T. b. brucei 2T1
# procedure details: Drug sensitivity assay (resazurin)
# Type: cell-based
# particulars: Trypanosoma brucei, 48 h drug + 24 h resazurin, read-out: EC50 control 2T1 AVG
observed property: EC50 (nM)

1) N=C(N)c1ccc(/N=N/Nc2ccc(C(=N)N)cc2)cc1
122
2) N=C(N)c1ccc(-c2ccc(-c3ccc(C(=N)N)cc3)[se]2)cc1
142
3) CC[n+]1c(-c2ccccc2)c2cc(N/N=N/c3cccc(C(=N)N)c3)ccc2c2ccc(N)cc21
112

---

Reported δ(ΔG^0) PMD values follow for various compounds
# assayed target: TbAQP2/HAPT1 (Trypanosoma brucei brucei)
# procedure details: cell-based
# Type: cell-based
observed property: δ(ΔG^0) PMD

1) Cl.Cl.N=C(N)c1ccc(OCCOc2ccc(C(=N)N)cc2)cc1.O.O
>4.71 kcal/mol
2) N=C(N)c1ccc(OCCCCCOc2ccc(C(=N)N)nc2)cn1
>5.26 kcal/mol
3) N=C(N)c1ccc(S(=O)(=O)CCCCCS(=O)(=O)c2ccc(C(=N)N)cc2)cc1
>4.95 kcal/mol
4) N=C(N)c1ccc(OCCCCCOc2ccc(C(=N)N)cc2C(N)=O)c(C(N)=O)c1
>4.71 kcal/mol
